Entries and their growth inhibition
assay: NCI Yeast Anticancer Drug Screen. Data for the mec2-1 strain (AID 157); conditions: S. cerevisiae mec2-1 strain, at 100.0 µM, active compounds read high
Compounds without any hit were thinned out: in the full panel of roughly 79,000, 15% have a hit.
Numeric only. Scale: %

Example cases with answers are listed next.
| Molecule | Measured attribute | Recorded value |
| --- | --- | --- |
| COc1cc(C(=O)C=O)cc(OC)c1OC | growth inhibition | 90 |
| CC1(C)CC(=O)C(C(=O)Nc2cccs2)=C(O)C1 | growth inhibition | 98 |
| CN(C)CCNCCCNc1c2ccccc2nc2cccc([N+](=O)[O-])c12 | growth inhibition | 95 |
| O=C(NNc1ccccc1)C(CCCCNS(=O)(=O)Cc1ccccc1)NS(=O)(=O)Cc1ccccc1 (stereo not given) | growth inhibition | 39 |

Next, consider the following molecule.
// lookup growth inhibition for CN1CCN(C(=O)c2cccc3cccc(C(=O)O)c23)CC1 99
